For each of the compounds below, state its area under dose-response curve.
Tested on: SK-N-MM (SKNMM-MYCN, doxycycline-inducible MYCN)
protocol description: area under dose-response curve (CellTiter-Glo viability normalised to plate controls) (AUC (arbitrary units)); higher = more loss of viability; extreme values may be limits of the assay
measurement parameters: MYCN induction (doxycycline): no doxycycline (MYCN not induced); time after drugging: 8 days
Reply with just the number.

Entry under test: O=C(Nc1ccc(Nc2nccc(Nc3cc(C4CCCC4)[nH]n3)n2)cc1)Nc1cccc(C(F)(F)F)c1 [CD532] . Its area under dose-response curve was 191

What the record says about CC[C@]1(O)C[C@H]2CN(CCc3c([nH]c4ccccc34)[C@@](C(=O)OC)(c3cc4c(cc3OC)N(C=O)[C@H]3[C@@](O)(C(=O)OC)[C@H](OC(C)=O)[C@]5(CC)C=CCN6CC[C@]43[C@@H]65)C2)C1 [VINCRISTINE] : area under dose-response curve is 146

Field area under dose-response curve (entry CC(=O)O[C@@H](C)/C=C\C(=O)N[C@@H]1C[C@H](C)[C@H](C/C=C(C)/C=C/[C@H]2O[C@](C)(O)C[C@@]3(CO3)[C@@H]2O)O[C@@H]1C ) reads 28.1

====

Test system: SK-N-MM (SKNMM-MYCN, doxycycline-inducible MYCN)
protocol description: area under dose-response curve (CellTiter-Glo viability normalised to plate controls) (AUC (arbitrary units)); higher = more loss of viability; extreme values may be limits of the assay
measurement parameters: MYCN induction (doxycycline): +doxycycline (MYCN induced); time after drugging: 3 days
endpoint name: area under dose-response curve
Please give only the number in your answer, with no unit.

get_value(item= CN(Cc1cnc2nc(N)nc(N)c2n1)c1ccc(C(=O)N[C@@H](CCC(=O)O)C(=O)O)cc1 [METHOTREXATE] , readout=area under dose-response curve) returns 3.6

Kindly note the recorded area under dose-response curve for CNC(=O)c1ccccc1Sc1ccc2c(/C=C/c3ccccn3)n[nH]c2c1 , which is 52.9

Memo: Cc1cc(Nc2ccc(NC(=O)c3ccc(Nc4ccnc5ccccc45)cc3)cc2)nc(N)n1 , reported area under dose-response curve: 80.5

Note to self: area under dose-response curve recorded for Cn1cnc2c(F)c(Nc3ccc(Br)cc3Cl)c(C(=O)NOCCO)cc21 was 0

====

Tested on: SK-N-MM (SKNMM-MYCN, doxycycline-inducible MYCN)
protocol description: area under dose-response curve (CellTiter-Glo viability normalised to plate controls) (AUC (arbitrary units)); higher = more loss of viability; extreme values may be limits of the assay
measurement parameters: MYCN induction (doxycycline): no doxycycline (MYCN not induced); time after drugging: 8 days
Quick rule for you: area under dose-response curve at 70 or higher means Criterion met, lower means Criterion not met.

In plain terms: is recorded area under dose-response curve at least 70 for O=C(CCCCCCC(=O)Nc1ccccc1)NO [VORINOSTAT] ? Criterion met

Reported area under dose-response curve at or above 70? CC(=O)c1c(C)c2cnc(Nc3ccc(N4CCNCC4)cn3)nc2n(C2CCCC2)c1=O [PALBOCICLIB] Criterion not met

Is it the case that CCOc1cc2ncc(C#N)c(Nc3ccc(OCc4ccccn4)c(Cl)c3)c2cc1NC(=O)/C=C/CN(C)C [NERATINIB] has area under dose-response curve reaching or exceeding 70? Criterion met

Does the reported area under dose-response curve for O=C(c1ccc(F)c(F)c1Nc1ccc(I)cc1F)N1CC(O)([C@@H]2CCCCN2)C1 [COBIMETINIB] fall at or above the 70 mark? Criterion met

Assess whether reported area under dose-response curve for CC1(C)CNc2cc(NC(=O)c3cccnc3NCc3ccncc3)ccc21 [MOTESANIB DIPHOSPHATE] sits at 70 or higher. Criterion not met

Item O=C(Nc1c[nH]nc1-c1nc2ccc(CN3CCOCC3)cc2[nH]1)NC1CC1 [AT9283] with area under dose-response curve of 70 or above? Criterion met

Given CC(/C=C/C(=O)NO)=C\[C@@H](C)C(=O)c1ccc(N(C)C)cc1 [TRICHOSTATIN A] , state whether its area under dose-response curve is at least 70. Criterion met

Hi team, for CCOc1cc(C(C)(C)C)ccc1C1=N[C@@](C)(c2ccc(Cl)cc2)[C@@](C)(c2ccc(Cl)cc2)N1C(=O)N1CCN(CCCS(C)(=O)=O)CC1 [RG7112] , is the recorded area under dose-response curve at or above 70? Criterion not met

====

Test system: SK-N-MM (SKNMM-MYCN, doxycycline-inducible MYCN)
protocol description: area under dose-response curve (CellTiter-Glo viability normalised to plate controls) (AUC (arbitrary units)); higher = more loss of viability; extreme values may be limits of the assay
measurement parameters: MYCN induction (doxycycline): no doxycycline (MYCN not induced); time after drugging: 8 days
endpoint name: area under dose-response curve
// response body must contain only the number

// assay SK-N-MM (SKNMM-MYCN, doxycycline-inducible MYCN), entry CO[C@@H]1[C@H](N(C)C(=O)c2ccccc2)C[C@H]2O[C@]1(C)n1c3ccccc3c3c4c(c5c6ccccc6n2c5c31)C(=O)NC4 , area under dose-response curve value = 127

# area under dose-response curve measured on SK-N-MM (SKNMM-MYCN, doxycycline-inducible MYCN) for item O=C(NC[C@H](O)CO)c1ccncc1Nc1ccc(I)cc1F = 105

Measured area under dose-response curve for this entry C[C@H]1[C@H](OC(=O)CCC(=O)O)O[C@@H]2O[C@@]3(C)CC[C@H]4[C@H](C)CC[C@@H]1[C@@]24OO3 [ARTESUNATE] on SK-N-MM (SKNMM-MYCN, doxycycline-inducible MYCN): 25.9

area under dose-response curve of CS(=O)(=O)CCNCc1ccc(-c2ccc3ncnc(Nc4ccc(OCc5cccc(F)c5)c(Cl)c4)c3c2)o1 , assay on SK-N-MM (SKNMM-MYCN, doxycycline-inducible MYCN), is 0

# Cc1cc(Nc2ccc(NC(=O)c3ccc(Nc4ccnc5ccccc45)cc3)cc2)nc(N)n1 with SK-N-MM (SKNMM-MYCN, doxycycline-inducible MYCN): area under dose-response curve is 105

Recorded area under dose-response curve for Cc1nc(-c2cn3c(n2)-c2ccc(-c4cnn(C(C)(C)C(N)=O)c4)cc2OCC3)n(C(C)C)n1 on SK-N-MM (SKNMM-MYCN, doxycycline-inducible MYCN) was 39

Lab note: compound COc1cc(NCc2ccc3nc(N)nc(N)c3c2C)cc(OC)c1OC [TRIMETREXATE] tested on SK-N-MM (SKNMM-MYCN, doxycycline-inducible MYCN); recorded area under dose-response curve was 47.1

Hey, SK-N-MM (SKNMM-MYCN, doxycycline-inducible MYCN) data for C[C@@H](Oc1cc(-c2cnn(C3CCNCC3)c2)cnc1N)c1c(Cl)ccc(F)c1Cl : area under dose-response curve came out at 178

====

Tested on: SK-N-MM (SKNMM-MYCN, doxycycline-inducible MYCN)
protocol description: area under dose-response curve (CellTiter-Glo viability normalised to plate controls) (AUC (arbitrary units)); higher = more loss of viability; extreme values may be limits of the assay
measurement parameters: MYCN induction (doxycycline): no doxycycline (MYCN not induced); time after drugging: 8 days
Parameter threshold = 100. Response is yes when area under dose-response curve meets or exceeds it, else no.

Dear colleague, could you confirm whether NC1(c2ccc(-c3nc4ccn5c(=O)[nH]nc5c4cc3-c3ccccc3)cc2)CCC1 has area under dose-response curve at or above 100? yes

Hi, just wondering whether Nc1ccn([C@@H]2O[C@H](CO)[C@@H](O)[C@@H]2O)c(=O)n1 shows area under dose-response curve of 100 or higher. yes

Dear colleague, could you confirm whether CCN1CCN(Cc2ccc(Nc3ncc(F)c(-c4cc(F)c5nc(C)n(C(C)C)c5c4)n3)nc2)CC1 has area under dose-response curve at or above 100? no

In plain terms: is recorded area under dose-response curve at least 100 for Cn1ncnc1[C@H]1c2n[nH]c(=O)c3cc(F)cc(c23)N[C@@H]1c1ccc(F)cc1 ? no

Check if area under dose-response curve >= 100 (inclusive). Item: CN1CCCN(C(=O)c2cccc(-c3ccc(/C=C4/C(=O)Nc5ccc(Cl)cc54)o3)c2)CC1 yes

Please tell me: is the compound CC1(C)CCC(C)(C)c2cc(NC(=O)c3ccc(C(=O)O)cc3)ccc21 at or over 100 in terms of area under dose-response curve? no

area under dose-response curve >= 100 for CC(C)c1cc(-c2n[nH]c(=O)n2-c2ccc3c(ccn3C)c2)c(O)cc1O ? yes

Decide: is the reported value of area under dose-response curve for CN(C)C/C=C/C(=O)Nc1ccc(C(=O)Nc2cccc(Nc3ncc(Cl)c(-c4c[nH]c5ccccc45)n3)c2)cc1 equal to or greater than 100? yes

====

System: SK-N-MM (SKNMM-MYCN, doxycycline-inducible MYCN)
protocol description: area under dose-response curve (CellTiter-Glo viability normalised to plate controls) (AUC (arbitrary units)); higher = more loss of viability; extreme values may be limits of the assay
measurement parameters: MYCN induction (doxycycline): +doxycycline (MYCN induced); time after drugging: 3 days
endpoint name: area under dose-response curve
// return a plain number; no unit text

According to the records, this compound Nc1cc(C(F)(F)F)c(-c2cc(N3CCOCC3)nc(N3CCOCC3)n2)cn1 displays area under dose-response curve of 91.8

What the record says about CN(C)CCCNC(=O)c1ccc(-c2cc(O)c3ncccc3c2)cc1 : area under dose-response curve is 16.5

get_value(item= CCOc1cc2ncc(C#N)c(Nc3ccc(OCc4ccccn4)c(Cl)c3)c2cc1NC(=O)/C=C/CN(C)C , readout=area under dose-response curve) returns 106

Entry under test: CO[C@H]1C[C@@H]2CC[C@@H](C)[C@@](O)(O2)C(=O)C(=O)N2CCCC[C@H]2C(=O)O[C@H]([C@H](C)C[C@@H]2CC[C@@H](OCCO)[C@H](OC)C2)CC(=O)[C@H](C)/C=C(\C)[C@@H](O)[C@@H](OC)C(=O)[C@H](C)C[C@H](C)/C=C/C=C/C=C/1C . Its area under dose-response curve was 19.6

Short answer for CC(=O)O[C@@]12CO[C@@H]1C[C@H](O)[C@@]1(C)C(=O)[C@H](O)C3=C(C)[C@@H](OC(=O)[C@H](O)[C@@H](NC(=O)OC(C)(C)C)c4ccccc4)C[C@@](O)([C@@H](OC(=O)c4ccccc4)[C@H]21)C3(C)C : area under dose-response curve was 142

area under dose-response curve in this record for COc1cc(F)ccc1-c1ncnc(Nc2cccc(CS(C)(=N)=O)c2)n1 (stereo unspecified) : 50.3
